- Tested on: Potassium voltage-gated channel subfamily H member 2, brain isoform KCNH2 3.1 (human)
- testName: qHTS for Inhibitors of KCHN2 3.1: Mutant qHTS
- cond: U2OS KCNH2 3.1, thallium flux FluxOr
Screen size: about 340,000 compounds; about 3,300 (0.97%) were called active.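 How the source made its calls: active means maximum activity change below -70%; inconclusive means maximum activity change from -70% to -50%; inactive means maximum activity change above -50%.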 This excerpt belongs to a sample that is enriched for actives.
Labels: y for active, n for inactive

compound=COCCCn1c(C(=O)NC2CCCCC2)cc2c(=O)n3cccc(C)c3nc21 assaytarget="Potassium voltage-gated channel subfamily H member 2, brain isoform KCNH2 3.1 (human)" assignedclass=n
compound="CC1=C(C(=O)N(C)C)CC(CC(=O)NCCc2ccccn2)C(=O)N1CCC1=CCCCC1 (configuration not stated)" assaytarget="Potassium voltage-gated channel subfamily H member 2, brain isoform KCNH2 3.1 (human)" assignedclass=n
compound=Cc1cc(N/N=C/c2ccccc2F)c2ccccc2n1 assaytarget="Potassium voltage-gated channel subfamily H member 2, brain isoform KCNH2 3.1 (human)" assignedclass=y
compound="O=C(COc1ccc2c3c(c(=O)oc2c1)CCCC3)NCC(O)c1ccccc1 (configuration not stated)" assaytarget="Potassium voltage-gated channel subfamily H member 2, brain isoform KCNH2 3.1 (human)" assignedclass=n
compound=COc1ccc(S(=O)(=O)N(C)C[C@H]2OCc3cnnn3CCCC(=O)N([C@H](C)CO)C[C@H]2C)cc1 assaytarget="Potassium voltage-gated channel subfamily H member 2, brain isoform KCNH2 3.1 (human)" assignedclass=n
compound="CC(C)CC1C(=O)N(Cc2cn(Cc3ccco3)nn2)CCS(=O)(=O)N1Cc1ccc(-c2ccc(Cl)c(Cl)c2)cc1 (configuration not stated)" assaytarget="Potassium voltage-gated channel subfamily H member 2, brain isoform KCNH2 3.1 (human)" assignedclass=n
compound=O=C(COc1ccc([N+](=O)[O-])cc1Cl)Nn1cnnc1 assaytarget="Potassium voltage-gated channel subfamily H member 2, brain isoform KCNH2 3.1 (human)" assignedclass=n
compound="Cc1cc(OCC(=O)NCC(O)c2ccccc2)c2c(C)c(C)c(=O)oc2c1 (configuration not stated)" assaytarget="Potassium voltage-gated channel subfamily H member 2, brain isoform KCNH2 3.1 (human)" assignedclass=n
compound=C/C(=C\c1ccco1)CN1CCC(N2CCC(C(=O)N3CCOCC3)CC2)CC1 assaytarget="Potassium voltage-gated channel subfamily H member 2, brain isoform KCNH2 3.1 (human)" assignedclass=y
compound=Cc1ccc(C(=O)NNC(=O)c2cc3cc4ccccc4nc3s2)cc1 assaytarget="Potassium voltage-gated channel subfamily H member 2, brain isoform KCNH2 3.1 (human)" assignedclass=n
compound=NC1=NC[C@@H](Cc2ccc(O)cc2)N1CC1CCCCC1 assaytarget="Potassium voltage-gated channel subfamily H member 2, brain isoform KCNH2 3.1 (human)" assignedclass=n
compound=O=C(C1CCN(C2CCN(Cc3cccc4c3OCO4)CC2)CC1)N1CCOCC1 assaytarget="Potassium voltage-gated channel subfamily H member 2, brain isoform KCNH2 3.1 (human)" assignedclass=n
compound=Cc1cc(S(=O)(=O)NC2CCCC2)ccc1-n1cnnn1 assaytarget="Potassium voltage-gated channel subfamily H member 2, brain isoform KCNH2 3.1 (human)" assignedclass=y
compound=O=C(c1ccc(N2CCOCC2)c([N+](=O)[O-])c1)N1CCN(c2ccccc2F)CC1 assaytarget="Potassium voltage-gated channel subfamily H member 2, brain isoform KCNH2 3.1 (human)" assignedclass=n
compound=O=C(c1ccc(Cl)c([N+](=O)[O-])c1)N1CCN(c2ccccc2)CC1 assaytarget="Potassium voltage-gated channel subfamily H member 2, brain isoform KCNH2 3.1 (human)" assignedclass=n
compound=CCOc1cc(/C=N/Nc2cc(C)nc3ccc(C)cc23)ccc1O assaytarget="Potassium voltage-gated channel subfamily H member 2, brain isoform KCNH2 3.1 (human)" assignedclass=n
compound="O=C(COc1ccc2ccc(=O)oc2c1)NCC(O)c1ccccc1 (configuration not stated)" assaytarget="Potassium voltage-gated channel subfamily H member 2, brain isoform KCNH2 3.1 (human)" assignedclass=y
compound="COc1ccc(CCNC(=O)COC(=O)C2CC2C)cc1 (configuration not stated)" assaytarget="Potassium voltage-gated channel subfamily H member 2, brain isoform KCNH2 3.1 (human)" assignedclass=n
compound="CCOC(=O)C1CCCN(S(=O)(=O)c2ccc(-n3cnnn3)c(C)c2)C1 (configuration not stated)" assaytarget="Potassium voltage-gated channel subfamily H member 2, brain isoform KCNH2 3.1 (human)" assignedclass=n
compound=Cc1ccc(NC(=O)Cn2sc3ccccc3c2=O)cc1 assaytarget="Potassium voltage-gated channel subfamily H member 2, brain isoform KCNH2 3.1 (human)" assignedclass=n
compound=O=C(/C=C/c1ccc(Cl)cc1)N1CCN(c2ccccc2[N+](=O)[O-])CC1 assaytarget="Potassium voltage-gated channel subfamily H member 2, brain isoform KCNH2 3.1 (human)" assignedclass=y
compound=NC(=S)NN=Cc1ccc(OC(=O)COc2cc(Cl)c(Cl)cc2Cl)cn1 assaytarget="Potassium voltage-gated channel subfamily H member 2, brain isoform KCNH2 3.1 (human)" assignedclass=n
